# Tested on: M14 melanoma
# EXPERIMENT SUMMARY: NCI tumour cell line growth inhibition, 48 h
Quick reference for TGI among some compounds

COMPOUND | TGI
COC1OC(CS(=O)(=O)O)C(O)C(O)C1O (stereo not drawn) | > 100 µM
CC(=O)C1C(c2ccccc2)C2(C)OC(=O)C(C#N)C12C (stereo not drawn) | > 100 µM
NCCCNCCS | > 100 µM

---

Quick reference for TGI among some compounds
# Test system: LOX IMVI melanoma
# EXPERIMENT SUMMARY: NCI tumour cell line growth inhibition, 48 h
VALUE KIND: TGI

COMPOUND | TEST RESULT
COc1cc(NS(=O)(=O)c2ccc(C)cc2)c2nccnc2c1 | > 100 µM
C=CC[P@]1(=O)O[C@H](c2ccccc2)[C@H](C)N1C | > 100 µM
O=C(/C=C/c1ccc(O)c(O)c1)OCC(OC(=O)/C=C/c1ccc(O)c(O)c1)C(=O)O (stereo not given) | > 100 µM
C#CCn1c(=O)c(I)cn(/C(=C/C(=O)OCC)C(=O)OCC)c1=O | > 48.5 µM
O=C1COc2cc(NC(=S)Nc3ccccc3)ccc2N1 | > 100 µM
